Each item that follows carries a reported Emax.
Biological target: UniProt:P30680
Sequence (P30680 whole entry): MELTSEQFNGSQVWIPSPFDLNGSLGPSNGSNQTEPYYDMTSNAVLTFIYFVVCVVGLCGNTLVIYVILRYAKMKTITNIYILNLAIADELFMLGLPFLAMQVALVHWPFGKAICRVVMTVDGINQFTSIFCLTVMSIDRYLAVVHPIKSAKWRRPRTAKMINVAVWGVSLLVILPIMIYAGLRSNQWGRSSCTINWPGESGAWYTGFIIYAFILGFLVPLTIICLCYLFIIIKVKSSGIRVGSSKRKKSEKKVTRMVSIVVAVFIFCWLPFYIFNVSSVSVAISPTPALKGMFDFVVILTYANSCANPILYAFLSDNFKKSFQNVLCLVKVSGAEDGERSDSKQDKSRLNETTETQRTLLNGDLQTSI
Assay: Cyclic AMP accumulation in intact cells (adrenal binding protein method)
Format: cell-based
Conditions: forskalin stimulated c-AMP levels in intact cells, 15 minutes at 37°C; read-out: % IA (% intrinsic activity)
Positions of bridges follow the written chain, without caps; N, C: chain ends. Non-standard residues stand in square brackets, D forms with d. Residues, ends and D or L forms follow the SMILES beside them. NMePhe(4-NO2) = CN[C@@H](Cc1ccc([N+](=O)[O-])cc1)C(=O)O; Phe(4-NO2) = N[C@@H](Cc1ccc([N+](=O)[O-])cc1)C(=O)O; 2Nal = N[C@@H](Cc1ccc2ccccc2c1)C(=O)O; d2Nal = N[C@H](Cc1ccc2ccccc2c1)C(=O)O; Abu = CC[C@H](N)C(=O)O
MEASURED PROPERTY: Emax (%)

[[record]]
compound = "C[C@@H](O)[C@@H]1NC(=O)[C@H](CCCCN)NC(=O)[C@@H](Cc2c[nH]c3ccccc23)NC(=O)[C@H](Cc2ccc(O)cc2)NC(=O)[C@H](NC(=O)[C@@H](N)Cc2ccc([N+](=O)[O-])cc2)CSSC[C@@H](C(=O)N[C@@H](Cc2ccc(O)cc2)C(N)=O)NC1=O"
observed_result = 5

[[record]]
compound = "CC[C@@H]1NC(=O)[C@H](CCCCN)NC(=O)[C@@H](Cc2c[nH]c3ccccc23)NC(=O)[C@H](Cc2ccc(O)cc2)NC(=O)[C@H](NC(=O)[C@@H](N)Cc2ccc([N+](=O)[O-])cc2)CSSC[C@@H](C(=O)N[C@@H](Cc2ccc(O)cc2)C(N)=O)NC1=O (H-[Phe(4-NO2)][dC]Y[dW]K[Abu]CY-NH2; disulfide 2-7 (inferred))"
observed_result = 21

[[record]]
compound = "CN[C@@H](Cc1ccc([N+](=O)[O-])cc1)C(=O)N[C@@H]1CSSC[C@@H](C(=O)N[C@@H](Cc2ccc(O)cc2)C(N)=O)NC(=O)[C@H](C(C)C)NC(=O)[C@H](CCCCN)NC(=O)[C@@H](Cc2c[nH]c3ccccc23)NC(=O)[C@H](Cc2ccc(O)cc2)NC1=O (H-[NMePhe(4-NO2)][dC]Y[dW]KVCY-NH2; disulfide 2-7 (inferred))"
observed_result = 9

[[record]]
compound = "CC(C)[C@@H]1NC(=O)[C@H](CCCCN)NC(=O)[C@@H](Cc2c[nH]c3ccccc23)NC(=O)[C@H](Cc2ccc(O)cc2)NC(=O)[C@H](NC(=O)[C@H](N)Cc2ccc3ccccc3c2)CSSC[C@@H](C(=O)N[C@@H](Cc2ccc(O)cc2)C(N)=O)NC1=O (H-[d2Nal][dC]Y[dW]KVCY-NH2; disulfide 2-7)"
observed_result = 8

[[record]]
compound = "CC(C)[C@@H]1NC(=O)[C@H](CCCCN)NC(=O)[C@@H](Cc2c[nH]c3ccccc23)NC(=O)[C@H](Cc2ccc(O)cc2)NC(=O)[C@H](NC(=O)[C@@H](N)Cc2ccc([N+](=O)[O-])cc2)CSSC[C@@H](C(=O)N[C@@H](Cc2ccc(O)cc2)C(N)=O)NC1=O (H-[Phe(4-NO2)][dC]Y[dW]KVCY-NH2; disulfide 2-7 (inferred))"
observed_result = 11

[[record]]
compound = "CC(=O)N[C@@H](Cc1ccc2ccccc2c1)C(=O)N[C@@H]1CSSC[C@@H](C(=O)N[C@@H](Cc2ccc(O)cc2)C(N)=O)NC(=O)[C@H]([C@@H](C)O)NC(=O)[C@H](CCCCN)NC(=O)[C@@H](Cc2c[nH]c3ccccc23)NC(=O)[C@H](Cc2ccc(O)cc2)NC1=O (Ac-[2Nal][dC]Y[dW]KTCY-NH2; disulfide 2-7 (inferred))"
observed_result = -26

[[record]]
compound = "CC(=O)N[C@@H](Cc1ccc([N+](=O)[O-])cc1)C(=O)N[C@@H]1CSSC[C@@H](C(=O)N[C@H](Cc2ccc(O)cc2)C(N)=O)NC(=O)[C@H]([C@@H](C)O)NC(=O)[C@H](CCCCN)NC(=O)[C@@H](Cc2c[nH]c3ccccc23)NC(=O)[C@H](Cc2ccc(O)cc2)NC1=O"
observed_result = -3

[[record]]
compound = "CC(C)[C@@H]1NC(=O)[C@H](CCCCN)NC(=O)[C@@H](Cc2c[nH]c3ccccc23)NC(=O)[C@H](Cc2ccc(O)cc2)NC(=O)[C@H](NC(=O)[C@@H](N)Cc2ccc([N+](=O)[O-])cc2)CSSC[C@@H](C(=O)N[C@@H](Cc2ccc3ccccc3c2)C(N)=O)NC1=O (H-[Phe(4-NO2)][dC]Y[dW]KVC[2Nal]-NH2; disulfide 2-7 (inferred))"
observed_result = 8

[[record]]
compound = "C[C@@H](O)[C@@H]1NC(=O)[C@H](CCCCN)NC(=O)[C@@H](Cc2c[nH]c3ccccc23)NC(=O)[C@H](Cc2ccc(O)cc2)NC(=O)[C@H](NC(=O)[C@@H](N)Cc2ccc([N+](=O)[O-])cc2)CSSC[C@@H](C(=O)N[C@H](Cc2ccc(O)cc2)C(N)=O)NC1=O"
observed_result = 12

[[record]]
compound = "CC(C)[C@@H]1NC(=O)[C@H](CCCCN)NC(=O)[C@@H](Cc2c[nH]c3ccccc23)NC(=O)[C@H](Cc2ccc(O)cc2)NC(=O)[C@H](NC(=O)[C@@H](N)Cc2ccc3ccccc3c2)CSSC[C@@H](C(=O)N[C@@H](Cc2ccc(O)cc2)C(N)=O)NC1=O (H-[2Nal][dC]Y[dW]KVCY-NH2; disulfide 2-7; N-terminus assumed)"
observed_result = 13

